Measured values drawn from patent US11795460B2 for this set.

System: TTR
Test: TTR editing in HEK293_Cas9 cells transfected with dgRNAs (Table 4)
Type: cell-based, human
Conditions: HEK293_Cas9 cells (constitutively express Spy Cas9) transfected with dgRNAs
Procedure: HEK293 Cas9 cell line. The human embryonic kidney adenocarcinoma cell line HEK293 constitutively expressing Spy Cas9 (“HEK293_Cas9”) was cultured in DMEM media supplemented with 10% fetal bovine serum and 500 μg/ml G418. […] To quantitatively determine the efficiency of editing at the target location in the genome, sequencing was utilized to identify the presence of insertions and deletions introduced by gene editing. […]
Rule: fulfilled for Avg % Deletion not less than 20%, not fulfilled for anything less.

SEQUENCE	CLASSIFICATION
AAAGUUCUAGAUGCUGUCCG (tested as dual guide RNA, chemistry not given here) [CR003346]	not fulfilled
GCGGCAAUGGUGUAGCGGCG (tested as dual guide RNA, chemistry not given here) [CR003377]	fulfilled
AUACCAGUCCAGCAAGGCAG (tested as dual guide RNA, chemistry not given here) [CR003338]	fulfilled
GCAUGGGCUCACAACUGAGG (tested as dual guide RNA, chemistry not given here) [CR003362]	not fulfilled
GGCUGUCGUCACCAAUCCCA (tested as dual guide RNA, chemistry not given here) [CR003391]	fulfilled
AGGCAGUCCUGCCAUCAAUG (tested as dual guide RNA, chemistry not given here) [CR003348]	not fulfilled
